# procedure summary: Solubility of olaparib at 60° C. in solvents
# Format: physicochemical
# condition label: water

# compound, solubility
data = [
    ("O=C(c1cc(Cc2n[nH]c(=O)c3ccccc23)ccc1F)N1CCN(C(=O)C2CC2)CC1 [olaparib]", "< 16.2 mg/mL"),
]

====

# procedure summary: Solubility of olaparib at 60° C. in solvents
# Assay type: physicochemical
# condition label: organic solvent or mixture, Toluene

# smiles record, solubility
measured = [
    ("O=C(c1cc(Cc2n[nH]c(=O)c3ccccc23)ccc1F)N1CCN(C(=O)C2CC2)CC1", "< 16.9 mg/mL"),
]

====

# procedure summary: Solubility of olaparib at room temperature in solvents
# Type: physicochemical
# condition label: organic solvent or mixture, DMSO
# Procedure: As used herein, the term “solvent” refers to a liquid substance capable of dissolving olaparib at a concentration of at least about 2.5% (w/w) at 60° C. The term “anti-solvent” refers to a liquid substance which is not capable of dissolving olaparib at a concentration of […] about 2.5% (w/w) at 60° C.
assay metric: solubility

# smiles record, assay metric, recorded value
measured = [
    ("O=C(c1cc(Cc2n[nH]c(=O)c3ccccc23)ccc1F)N1CCN(C(=O)C2CC2)CC1", "solubility", "> 210 mg/mL"),
]
